Cited source: patent US20030236190A1

The entries below are paired with their reported IGF-1R/IR Comparison.
Target: T1, Soluble IGF-1R (R&D Systems, Cat. # 391-GR/CF); recombinant human IGF-1R (human, UniProt P08069 31-935)
T1 construct: extracellular domain; Eu3+-labelled in the TR-FRET assays; also called sIGF-1R; rhIGF-1R
Experiment: phage ELISA, vs IR
Positions of bridges follow the written chain, without caps; N, C: chain ends. No end group written: not given here.
Quick note: give the figure in ratio, leave out the unit.

[[record]]
binder = "CCTTEMVVMDARDDPFYHKLSELVTGG [B6Hα-1-B5-IR]"
observed_measurement = 20.5

[[record]]
binder = "SAAQLFFQESFYDWFLRQVAESSQPN [H2CA-4-F11-IGFR]"
observed_measurement = 6.7

[[record]]
binder = "SSIGGGFHENFYDWFSRQLSQSPPLK [N2CA-4-F7-IGFR]"
observed_measurement = 4.1

[[record]]
binder = "LSVALSFYDALGQLVAGEGRW [20E2A-3-A12-IGFR]"
observed_measurement = 3.9


Given the entry VNQSGSIHENFYDWFERQVSHQRGVR [H2CA-4-F1O-IGFR] , report its measured IGF-1R/IR Comparison.
5.9

Given the entry SRAKVEAEMPDSGDPFYHKLSELLASG [B6Hα-1-A3-IR] , report its measured IGF-1R/IR Comparison.
3.3

Given the entry TFYSCLASLLTGTPQPNRGPWERCR (disulfide 5-24 (inferred)) [20C-3-G3-IGFR] , report its measured IGF-1R/IR Comparison.
27

Given the entry RGMKEEVLVGGSTDPFYHKLSELLQGS [B6Hα-3-F11-IR] , report its measured IGF-1R/IR Comparison.
11.7

Given the entry VEGRGLFYDLLRQLLARRQNG [20E2B-3-C6-IGFR] , report its measured IGF-1R/IR Comparison.
14.8

Given the entry GCVVEWQKWHGASDPFYHKLSELGGCS (disulfide 2-26 (inferred)) [B6Hα-3-F10-IR] , report its measured IGF-1R/IR Comparison.
4.6

Given the entry GNGDGMFYQLLSLLVGRDMHV [20E22-3-C2-IGFR] , report its measured IGF-1R/IR Comparison.
13.8
